Tested on: CASK
Conditions: concentration: 1 μM, replicates: in singlicate; n = 1;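 note: KINOMEscan kinase panel screen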
The following molecules are listed with their measured %Inh values.
PARAMETER: %Inh (%)

MOLECULE	MEASURED_NUMBER
CCn1cnc2c(NCc3ccccc3)ncnc21 [SKF-96418]	25
Cc1nn2c(=O)cc(N3CCO[C@H](C)C3)nc2n1Cc1cccc(Cl)c1Cl [GSK2373693]	75
Cn1cc(-c2cnc(N)c3c(-c4ccc5c(c4)CCN5C(=O)Cc4ccccc4)csc23)cn1 [GSK2593074]	23
COc1cccc(CC(=O)N2CCc3cc(-c4cn(C)c5ncnc(N)c45)ccc32)c1 [GSK2608899]	16
Cl.N#CCc1ccc(Nc2nccc(Nc3ccc(Oc4ccccc4)cc3)n2)cc1 [GW639905]	8
O=C(Nc1n[nH]c2nc(-c3ccccc3)ccc12)C1CC1 [SB-708999]	14
CN(c1ccc(F)c(NC(=O)c2cccc(OC(C)(C)C#N)c2Cl)c1)c1ccc2nc(NC(=O)C3CC3)sc2n1	0
Cn1cc(-c2ccc3c(c2)CCN3C(=O)Cc2cc(F)cc(C(F)(F)F)c2)c2c(N)ncnc21 [GSK2635225]	2

====

Tested on: PAK1
Details: concentration: 1 μM, replicates: in singlicate; n = 1
Each entry below carries its recorded %Inh.
PARAMETER: %Inh (%)

COMPOUND	MEASURED_NUMBER
Cc1cccc(Nc2nc(NCCN)ncc2C(N)=O)c1 [GSK1292139]	16
Nc1ncc(-c2cn[nH]c2)c2scc(-c3ccc4c(c3)CCN4C(=O)Cc3ccccc3)c12 [GSK2593067]	0
COc1ccc(C)c(Nc2ccnc(Nc3ccc(-c4cnc[nH]4)cc3)n2)c1.Cl [GW784041]	0
COc1ccc(NC(=O)c2ccoc2)cc1-c1ccc(C(=O)NCC2CC2)cc1 [GW810437]	0
Cc1cc(-c2c(-c3ccc(F)cc3)ncn2CCCN2CCOCC2)nc(N)n1 [SB-222517]	0
O=C(Nc1n[nH]c2nc(-c3ccccc3O)ccc12)C1CC1 [SB-711880]	0
Nc1ncnc2scc(-c3ccc(NC(=O)Cc4cc(F)ccc4F)cc3)c12.O=C(O)C(F)(F)F [SB-731254-M]	7
COc1cccc2c(-c3ccncc3)c(-c3ccc(F)cc3)nn12 [GW468513]	0
O=C(O)C(F)(F)F.O=c1[nH]ccc2nc(N[C@@H]3CCNC3)nc(Nc3cc(Cl)cc(Cl)c3)c12 [GSK2188764]	92.2

====

%Inh values for the compounds below.
Tested on: NDR2
Details: concentration: 1 μM, replicates: in singlicate; n = 1
PARAMETER: %Inh (%)

COMPOUND	PARAMETER	MEASURED_NUMBER
O=C(Nc1n[nH]c2nc(-c3ccccc3)ccc12)C1CC1	%Inh	13
COc1cc(Nc2nccc(N3CCC(NS(=O)(=O)c4ccc(NC(C)=O)cc4)CC3)n2)cc(OC)c1OC	%Inh	0
NCCC(NC(=O)c1cc(Br)c(-c2ccnc3[nH]ccc23)s1)c1ccccc1.O=C(O)C(F)(F)F.O=C(O)C(F)(F)F (stereo not shown)	%Inh	96.7
CCNc1nccc(-c2c(-c3ccc(F)cc3)ncn2C2CCN(C)CC2)n1	%Inh	5
COC(=O)Nc1nc2cc(Oc3ccc(NC(=O)Nc4cccc(SC)c4)cc3)ccc2[nH]1.Cl	%Inh	0
Cc1ccc(C)c(NC(=O)Nc2ccc(C)c(-c3ccc(C(=O)Nc4ccncc4)cc3)c2)c1	%Inh	0
Cl.O=C(Nc1ccc(Oc2ccc3[nH]c(NC(=O)c4ccco4)nc3c2)cc1)Nc1cc(C(F)(F)F)ccc1F	%Inh	0
CS(=O)(=O)c1cccc(CNc2nc(Nc3ccc4c(c3)CCC(=O)N4)ncc2C(F)(F)F)c1	%Inh	0
Cn1cc(-c2cnc(N)c3c(-c4ccc5c(c4)CCN5C(=O)Cc4ccccc4)csc23)cn1	%Inh	2
CN(c1ccc(NC(=O)Nc2cccc(Cl)c2)cc1)c1ccnc(N)n1.Cl	%Inh	25
O=C(Nc1n[nH]c2cc(-c3cccs3)ccc12)C1CC1	%Inh	0
COc1cc(Nc2ccnc3cc(-c4ccncc4)ccc23)cc(OC)c1OC.Cl	%Inh	0
Cl.Cl.NCC(NC(=O)c1cc(-c2cccnc2)c(-c2ccnc3[nH]ccc23)s1)c1ccccc1 (stereo not shown)	%Inh	13
COc1cccc(-c2nc(-c3ccccc3)[nH]c2-c2ccncc2)c1	%Inh	0
COc1cccc(C2=C(Nc3cccc(O)c3)C(=O)NC2=O)c1	%Inh	0
O=C(Nc1n[nH]c2nc(-c3cccc(O)c3)ccc12)C1CC1	%Inh	0
CN(c1ccc(F)c(NC(=O)c2cccc(OC(C)(C)C#N)c2Cl)c1)c1ccc2nc(NC(=O)C3CC3)sc2n1	%Inh	29
CN(C)c1ncnc2nc[nH]c12	%Inh	24
Cc1ccc(Nc2ccnc(Nc3ccc(C)c(F)c3)n2)cc1O.Cl	%Inh	0
O=C(O)C(F)(F)F.O=c1[nH]ccc2nc(N[C@@H]3CCNC3)nc(Nc3cc(Cl)cc(Cl)c3)c12	%Inh	68
Fc1cc(Cl)ccc1Nc1ccnc2cc(-c3ccc(CN4CCOCC4)o3)ccc12	%Inh	0
O=C(Nc1n[nH]c2nc(-c3ccccc3O)ccc12)C1CC1	%Inh	0
COc1cccc2c(-c3ccncc3)c(-c3ccc(F)cc3)nn12	%Inh	0
Cl.N#CCc1ccc(Nc2nccc(Nc3ccc(Oc4ccccc4)cc3)n2)cc1	%Inh	0
Nc1ncnc2scc(-c3ccc(NC(=O)Cc4cc(F)ccc4F)cc3)c12.O=C(O)C(F)(F)F	%Inh	25
Cc1cc(-c2c(-c3ccc(F)cc3)ncn2CCCN2CCOCC2)nc(N)n1	%Inh	14
Cn1cc(-c2ccc3c(c2)CCN3C(=O)Cc2cc(F)cc(F)c2F)c2c(N)ncnc21	%Inh	0
CSc1ccc(NC2=C(c3ccc(Cl)cc3)C(=O)NC2=O)cc1	%Inh	9
N#Cc1cnc2cc(-c3cnc(CNCCN4CCOCC4)s3)ccc2c1Nc1ccc(Oc2ccccc2)cc1	%Inh	0
Cc1ccc(NC(=O)c2ccnc(N3CCCCC3)c2)cc1-c1ccc(C(=O)NCC2CC2)cc1	%Inh	5
COc1ccc(NC(=O)c2ccoc2)cc1-c1ccc(C(=O)NCC2CC2)cc1	%Inh	16
CN(c1ccc(NC(=O)N2CCN(CCCN3CCOCC3)CC2)cc1)c1ccnc(Nc2ccc(CS(C)(=O)=O)cc2)n1.Cl	%Inh	0
Cc1cccc(Nc2nc(N[C@H]3CCCC[C@H]3N)ncc2C(N)=O)c1.Cl	%Inh	0
CCNC(=O)/C=C/c1n[nH]c2cc(Sc3ccccc3C(=O)NC)ccc12	%Inh	18

====

System: BRSK1
Conditions: concentration: 1 μM, replicates: in singlicate; n = 1
%Inh values for the molecules below.
PARAMETER: %Inh

COMPOUND_STRUCTURE_STRING	PARAMETER	RESULT
Cc1ccc(O)cc1Nc1ccnc2ccc(C(C)(C)C)cc12	%Inh	5%
Cc1ccc(Nc2ccnc(Nc3ccc(C)c(F)c3)n2)cc1O.Cl	%Inh	0%
COc1ccc(NC(=O)c2ccoc2)cc1-c1ccc(C(=O)NCC2CC2)cc1	%Inh	0%
CNc1nccc(-c2ccc3c(N)n[nH]c3c2)n1	%Inh	22%
O=C(Nc1n[nH]c2cc(-c3cccs3)ccc12)C1CC1	%Inh	54%
N#CC1(c2cccc(C(=O)Nc3cccc(Oc4ccc5nc(NC(=O)C6CC6)sc5n4)c3)c2)CC1	%Inh	13%
COc1cc(Nc2ccnc3cc(-c4ccncc4)ccc23)cc(OC)c1OC.Cl	%Inh	0%
CCn1cnc2c(NCc3ccccc3)ncnc21	%Inh	0%
COC(=O)Nc1nc2ccc(Oc3ccc(CC(=O)Nc4cc(C(F)(F)F)ccc4F)cc3)cc2[nH]1	%Inh	1%

====

Quick reference for %Inh among some molecules
Test system: ADCK3
Construct: gene CABC1
Settings: concentration: 1 μM, replicates: in singlicate; n = 1
PARAMETER: %Inh (%)

MOLECULE	MEASURED_NUMBER
Cn1cc(-c2ccc3c(c2)CCN3C(=O)Cc2cc(F)cc(F)c2F)c2c(N)ncnc21	6
COc1ccc(C)c(Nc2ccnc(Nc3ccc(-c4cnc[nH]4)cc3)n2)c1.Cl	40
Cc1ccc(Nc2ccnc(Nc3ccc(C)c(F)c3)n2)cc1O.Cl	14
c1ccc(Oc2ccc(Nc3ccnc4cc(-c5ccc(CN6CCCCC6)o5)ccc34)cc2)nc1	0
CN(C)c1ncnc2nc[nH]c12	0
CCn1cnc2c(NCc3ccccc3)ncnc21	0
COc1cccc(NC(=O)NCCNc2ccnc(Nc3ccc(F)cc3)n2)c1	14
COc1cc(Nc2nccc(N3CCC(NS(=O)(=O)c4ccc(NC(C)=O)cc4)CC3)n2)cc(OC)c1OC	80
COc1cc(Nc2ccnc3cc(-c4ccncc4)ccc23)cc(OC)c1OC.Cl	98.6
Cl.Cl.NCC(NC(=O)c1cc(-c2cccnc2)c(-c2ccnc3[nH]ccc23)s1)c1ccccc1 (stereo not drawn)	97.5
COc1cccc2c(-c3ccncc3)c(-c3ccc(F)cc3)nn12	43
Nc1cccc(-c2ccc3c(N)n[nH]c3c2)c1	3
Cc1cc(-c2ccnc(Nc3cccc(C#N)c3)n2)cc(C)c1O	35
CSc1ccc(NC2=C(c3ccc(Cl)cc3)C(=O)NC2=O)cc1	1
CN1CCN(Cc2ccc(NC(=O)Nc3ccc(N(C)c4ccnc(Nc5ccc(CS(C)(=O)=O)cc5)n4)cc3)cc2)CC1.Cl	0
Fc1cc(Cl)ccc1Nc1ccnc2cc(-c3ccc(CN4CCOCC4)o3)ccc12	0
Cc1nn2c(=O)cc(N3CCO[C@H](C)C3)nc2n1Cc1cccc(Cl)c1Cl	15
O=C(Nc1c(F)cccc1F)c1cc(C(=O)c2ccccc2F)c[nH]1	11
